Assay: qHTS for Inflammasome Signaling Inhibitors: IL-1-beta AlphaLISA screen against the NCATS CANVASS Library (AID 1347379);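 further: human THP-1 cells primed with LPS then triggered with ATP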
Conditions: THP-1 LPS/ATP, IL-1B AlphaLISA secretion, 16 h; series mostly up to 57.5 µM
Inconclusive results are not listed. Active and inactive are the calls of the source. The call rests on the fitted dose curve; in most records, active means well fitted inhibition curve with a large enough effect; inconclusive means small, poorly fitted or top-dose-only effect; inactive means flat fitted curve, though single readings scatter.
Classes used: 1.0 for active, 0.0 for inactive

compound: C=C1[C@@H](C)[C@H]2[C@H](Cc3ccccc3)NC(=O)[C@]23OC(=O)/C=C/[C@H](O)CCC[C@@H](C)C/C=C/[C@H]3[C@@H]1O
class: 0.0
//
compound: CCCC[C@@H]1CC[C@H]2CCCC(CCC)N12 (some centres undefined)
class: 0.0
//
compound: CC1=CC2CC[C@@H]3[C@@H](C)C[C@H](C)[C@@H](C1)N23 (some centres undefined)
class: 0.0
//
compound: CO[C@@H](/C=C/CC/C=C/C(=O)O)[C@@H](O)[C@H](C)/C=C(\C)[C@@H](O)[C@H](C)C(=O)CCCC1CC(=O)NC(=O)C1
class: 0.0
//
compound: CCN1C[C@]2(C)CC[C@H](O)[C@]34C1C(C[C@H]23)[C@@]12CC[C@H](CC14)[C@](O)(COC(=O)c1ccc(OC)c(OC)c1)[C@H]2O (some centres undefined)
class: 0.0
//
compound: COc1ccc2c(c1)[nH]c1c(C)nccc12
class: 1.0
//
compound: CNCCc1ccccc1
class: 0.0
//
compound: O=C(c1ccccc1O)c1[nH]c(Cl)c(Cl)c1-n1c(C(=O)c2ccccc2O)cc(Cl)c1Cl
class: 1.0
//
compound: CNCCc1ccc(O)cc1
class: 0.0
//
compound: CN1C(=O)[C@]23CC4C(C)(C)[C@@]5(C[C@@]41CN2CC[C@@]3(C)O)C(=O)Nc1c5ccc2c1OC=CC(C)(C)O2 (some centres undefined)
class: 0.0
//
compound: CNCCc1c[nH]c2ccccc12
class: 0.0
//
compound: C/C=C1/CN2CC[C@]34C(=Nc5ccccc53)[C@@H]2C[C@@H]1[C@H]4C(=O)OC
class: 0.0
//
compound: CC[C@@H]1CN2CC[C@@]3(O)C(=Nc4cccc(OC)c43)[C@@H]2C[C@@H]1/C(=C\OC)C(=O)OC
class: 0.0
//
compound: C[C@]12CC(O)C3[C@@H](CCC4C[C@@H](O)CC[C@@]43CO)[C@@]1(O)CCC2C1=CC(=O)OC1 (some centres undefined)
class: 0.0

====

Tested on: OV90
Test: Primary qHTS to identify gynecologic anti-cancer compounds using libraries of approved drugs and bioactive compounds (AID 1345084); further: nearly all actives have a fitted effect of over 55% in size
Settings: Gynecologic cancer cell panel viability, ATPlite luminescence, 48 h; series mostly up to 57.5 µM
Records with an inconclusive call do not appear. Active and inactive are the calls of the source. Calls come from the whole dose curve; as a rule, active = well fitted cell-killing curve with a large enough effect; inconclusive = small, poorly fitted or top-dose-only effect, or effect the other way; inactive = flat fitted curve, though single readings scatter.
Outcomes: active, inactive

compound: C[C@H]1C/C=C/[C@H]2[C@@H]3O[C@]3(C)[C@@H](C)[C@H]3[C@H](Cc4ccccc4)NC(=O)[C@]32OC(=O)O/C=C/[C@@](C)(O)C1=O
class: inactive
//
compound: C#C[C@]1(O)CC[C@H]2[C@@H]3CC[C@H]4Cc5nc6nc7ccccc7n6cc5C[C@]4(C)[C@H]3CC[C@@]21C
class: inactive
//
compound: CC(=O)N1N=C(c2ccc(N)cc2)c2cc3c(cc2C[C@H]1C)OCO3
class: inactive
//
compound: CN1C(=O)CN=C(c2ccccc2Cl)c2cc(Cl)ccc21
class: inactive
//
compound: CCC1C2CC3C4N(C)c5ccccc5C45CC(C2C5O)N3C1O (centres undefined)
class: inactive
//
compound: C=CCN1CC[C@]23c4c5ccc(O)c4O[C@H]2[C@@H](O)CC[C@@]3(O)[C@H]1C5
class: inactive
//
compound: C=C1C(=O)CC2OC2(C)CC2OC(=O)C(=C)C2C(O)C1OC(=O)/C(C)=C\C (centres undefined)
class: inactive
//
compound: CC(=O)OC[C@]12C[C@H](OC(C)=O)C(C)=C[C@H]1O[C@@H]1[C@H](O)[C@@H](O)[C@@]2(C)[C@]12CO2
class: active
//
compound: C[C@]12CC[C@H](O)C[C@@H]1CC[C@@H]1[C@@H]2CC[C@]2(C)C(=O)CC[C@@H]12
class: inactive

====

Assay: Panc-1005 Cancer Cell Toxicity qHTS against the NCATS CANVASS Library (AID 1347349); further: nearly all actives have a fitted effect of over 60% in size
Settings: Panc-1005 viability, CellTiter-Glo luminescence, 72 h; series mostly up to 38.3 µM
Source text: Natural products and their derivatives continue to be wellsprings of nascent therapeutic potential. […] To address this issue, the Canvass library of natural products was assembled (https://tripod.nih.gov/canvass), in collaboration with academic and industry researchers, for quantitative high-throughput screening (qHTS) across a diverse set of cell-based and biochemical assays. […]
Results filed as inconclusive are left out. Active and inactive are the calls of the source. Calls come from the whole dose curve; as a rule, active = well fitted cell-killing curve with a large enough effect; inconclusive = small, poorly fitted or top-dose-only effect; inactive = flat fitted curve, though single readings scatter.
Possible outcomes: active, inactive

compound: CCN1C[C@]2(C)CC[C@H](O)[C@]34C1C(C[C@H]23)[C@@]12CC[C@H](CC14)[C@](O)(COC(=O)c1ccc(OC)c(OC)c1)[C@H]2O (stereo not given in full)
class: inactive
//
compound: C/C=C1/CN2CC[C@]34C(=Nc5ccccc53)[C@@H]2C[C@@H]1[C@H]4C(=O)OC
class: inactive
//
compound: CC(=O)N[C@H]1CCN2CCC[C@H]12
class: inactive
//
compound: CO[C@@H](/C=C/CC/C=C/C(=O)O)[C@@H](O)[C@H](C)[C@@H](O)/C(C)=C/[C@H](C)C(=O)CCCC1CC(=O)NC(=O)C1
class: inactive
//
compound: O=C(c1ccccc1O)c1[nH]c(Cl)c(Cl)c1-n1c(C(=O)c2ccccc2O)cc(Cl)c1Cl
class: active

====

Molecular target: Bile acid receptor (Homo sapiens)
Experiment: qHTS assay for small molecule agonists of farnesoid X receptor signaling (AID 588527);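 further: 0% = vehicle basal and 100% = reference agonist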
Conditions: HEK293T FXR-UAS-bla, beta-lactamase ratio, 16 h; stronger effect = higher value
Excerpt: NIH Chemical Genomics Center [NCGC] U.S. Environmental Protection Agency [EPA] National Institutes of Environmental Health Sciences [NIEHS] National Toxicology Program [NTP] […] NCGC Assay Protocol Summary Using a beta-lactamase reporter-gene under control of Farnesoid X receptor (FXR) response element, a cell-based assay [GeneBLAzer FXR-UAS-bla assay developed by Invitrogen] was used to measure FXR ligands signaling. […] Detection; Fluorescence; Envision plate reader
Results filed as inconclusive are left out.
Listing of entries alongside the reported activation.
readout-name: activation (%)

entry-smiles: CCCCOP(=O)(O)OCCCC
target-system: Bile acid receptor (Homo sapiens)
readout-name: activation
value-reported: 1.99
--
entry-smiles: CCCc1c(-c2ccc(O)cc2)nn(-c2ccc(O)cc2)c1-c1ccc(O)cc1
target-system: Bile acid receptor (Homo sapiens)
readout-name: activation
value-reported: 1.37
--
entry-smiles: CCCCC=O
target-system: Bile acid receptor (Homo sapiens)
readout-name: activation
value-reported: 1.59
--
entry-smiles: CCCCCCC(=O)O
target-system: Bile acid receptor (Homo sapiens)
readout-name: activation
value-reported: -0.812
--
entry-smiles: O=C(O)c1cc(O)c2ccccc2c1O
target-system: Bile acid receptor (Homo sapiens)
readout-name: activation
value-reported: 1.64
--
entry-smiles: O=C1c2cccc(O)c2C(=O)c2c(O)cc(CO)cc21
target-system: Bile acid receptor (Homo sapiens)
readout-name: activation
value-reported: 4.08
--
entry-smiles: CC(=O)C(C)=O
target-system: Bile acid receptor (Homo sapiens)
readout-name: activation
value-reported: 0.539
--
entry-smiles: COC(=O)CCCC(=O)OC
target-system: Bile acid receptor (Homo sapiens)
readout-name: activation
value-reported: -3.54

====

Test: Validation screen for inhibitors of Lassa infection (AID 463096)
Details: Lassa virus infection, cell-based; series mostly up to 46.1 µM
Results filed as inconclusive are left out. Activity calls are given as the source filed them. The call rests on the fitted dose curve.
Outcomes: 1 (active), -1 (inactive)

molecule: CN(C)CCC(c1ccc(Cl)cc1)c1ccccn1 (configuration not stated)
class: -1

molecule: CCCC[C@@]1(C2CCCC2)Cc2cc(OCC(=O)O)c(Cl)c(Cl)c2C1=O
class: -1

molecule: O=C(CCc1ccc(O)cc1)c1c(O)cc(O)cc1O
class: -1

molecule: CC(C)(C)c1ccc(S(=O)(=O)/C=C/C#N)cc1
class: 1

molecule: Brc1c(Br)c(Br)c2n[nH]nc2c1Br
class: -1

molecule: O=C(O)CC1CCCc2ccccc2C1O (configuration not stated)
class: -1

molecule: O=C(/C=C/c1ccc(O)c(O)c1)OCCc1ccccc1
class: -1

molecule: NC1(C(=O)O)CCc2cc(C(=O)O)ccc21 (configuration not stated)
class: -1

molecule: N#C/C(=C\c1ccc(O)c(O)c1)C(=O)NCc1ccccc1
class: -1

molecule: CC(=O)[C@H]1CCC2C3CC=C4C[C@@H](OS(=O)(=O)O)CC[C@]4(C)C3CC[C@@]21C (some centres not stated)
class: -1

molecule: CC(=O)C(C)=O
class: -1

molecule: c1ccc(C2CN3CCSC3=N2)cc1 (configuration not stated)
class: -1

molecule: O=C(O)CNC(=O)C(CS)Cc1ccccc1 (configuration not stated)
class: -1

molecule: O=C(O)C1=CCNCC1
class: -1

molecule: Oc1cc2c(cc1O)CN(C(=S)NCCc1ccc(Cl)cc1)CCC2
class: -1

molecule: N#CC(=C(\N)Sc1ccccc1N)/C(C#N)=C(/N)Sc1ccccc1N
class: 1

molecule: NC(=O)c1cccc(N)c1
class: -1

molecule: Cn1c(=O)c2[nH]c(-c3ccccc3)nc2n(C)c1=O
class: -1

molecule: CCOC(=O)C12CC1/C(=N/O)c1ccccc1O2 (configuration not stated)
class: -1

molecule: CC1C(=O)N(C)C(=O)c2nc[nH]c21 (configuration not stated)
class: -1

molecule: OCC1O[C@H](O)C(Cl)C(O)C1O (some centres not stated)
class: -1

molecule: Cn1cc(C2=C(c3ccc(Cl)cc3Cl)C(=O)NC2=O)c2ccccc21
class: -1

molecule: CCCCC/C=C\CC(O)/C=C/c1cccc(CC(O)CCCCO)n1 (configuration not stated)
class: -1

molecule: O=C(O)[C@@H]1C[C@H](C(=O)O)N1
class: -1

molecule: OC[C@H]1O[C@@H](n2cnc3cncnc32)[C@H](O)[C@@H]1O
class: -1

molecule: NO
class: -1

molecule: O=C(O)c1ccccc1Nc1ccccc1
class: -1
